target: D(1A) dopamine receptor (Rattus norvegicus, UniProt P18901); test: Dopamine receptor D1 antagonistic activity as ability to block dopamine-stimulated adenylate cyclase in rat caudate; type: functional
Sequence (P18901 whole entry): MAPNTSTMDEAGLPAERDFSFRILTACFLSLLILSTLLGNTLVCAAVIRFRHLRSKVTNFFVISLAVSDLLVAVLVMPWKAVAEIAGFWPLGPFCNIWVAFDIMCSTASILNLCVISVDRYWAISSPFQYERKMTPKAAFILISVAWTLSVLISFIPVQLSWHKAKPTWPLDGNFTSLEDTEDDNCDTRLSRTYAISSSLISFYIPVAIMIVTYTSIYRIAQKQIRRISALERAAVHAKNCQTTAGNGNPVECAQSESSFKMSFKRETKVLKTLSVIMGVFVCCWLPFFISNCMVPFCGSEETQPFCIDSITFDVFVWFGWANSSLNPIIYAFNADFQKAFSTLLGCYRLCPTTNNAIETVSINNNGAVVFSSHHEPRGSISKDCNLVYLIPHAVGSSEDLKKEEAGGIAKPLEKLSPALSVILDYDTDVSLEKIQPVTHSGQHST
Parameter pKi: see the listing below.
Recall that pKi is obtained by taking minus log10 of the concentration measured in molar.

Can you look up the measured pKi of CN(C)CCCCCCN1CCc2cc(Cl)c(O)cc2C(c2ccccc2)C1 (configuration not stated) for me? 7.68

Kindly review the next molecule as well.
Can you look up the measured pKi of CN(C)c1ccc(/C=C/CN2CCc3cc(Cl)c(O)cc3C(c3ccccc3)C2)cc1 (configuration not stated) for me? 7.74

---

molecular target: D(1A) dopamine receptor (Rattus norvegicus, UniProt P18901); test: Affinity for Dopamine receptor D1 binding measured by competition against [3H]-SCH- 23390 to rat striatal membrane; design: species or system Striatum
value-kind: Ki (nM)
Unit nM implied. Number only.

Can you look up the measured Ki of CN(C)c1ccc(CCN2CCc3cc(Cl)c(O)cc3C(c3ccccc3)C2)cc1 (stereo unspecified) for me? 88.4

---

molecular target: D(2) dopamine receptor (Rattus norvegicus); experiment: Affinity for Dopamine receptor D2 binding measured by sulpiride […] to rat striatal membrane; parameters: species or system Striatum; conditions: read-out: Ki
Sequence (P61169 whole entry): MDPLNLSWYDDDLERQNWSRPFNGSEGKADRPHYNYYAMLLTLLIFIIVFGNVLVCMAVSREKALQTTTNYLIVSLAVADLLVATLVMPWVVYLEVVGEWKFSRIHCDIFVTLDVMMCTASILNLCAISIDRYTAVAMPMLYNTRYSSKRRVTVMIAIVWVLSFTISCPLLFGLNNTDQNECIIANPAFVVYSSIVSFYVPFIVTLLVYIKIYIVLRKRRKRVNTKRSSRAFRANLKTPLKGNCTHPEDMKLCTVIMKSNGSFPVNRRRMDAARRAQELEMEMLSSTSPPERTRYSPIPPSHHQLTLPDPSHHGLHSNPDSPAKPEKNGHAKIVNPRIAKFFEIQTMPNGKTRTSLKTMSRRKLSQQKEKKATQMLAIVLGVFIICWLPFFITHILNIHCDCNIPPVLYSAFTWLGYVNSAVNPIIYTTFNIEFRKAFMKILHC
value-kind: pKi
Recall that pKi is obtained by taking minus log10 of the concentration measured in molar.

Illustrative cases are given below, each with its answer.
Checklist item: pKi tested on D(2) dopamine receptor (Rattus norvegicus), entry CN(C)CCCCCCN1CCc2cc(Cl)c(O)cc2C(c2ccccc2)C1 (stereo not given) , value? 5.38

Quick one: COc1cc2c(cc1Br)CCN(C/C=C/c1ccc(N(C)C)cc1)CC2c1ccccc1 (stereo not given) 5.70

---
Checklist item: pKi tested on D(2) dopamine receptor (Rattus norvegicus), entry CN(C)c1ccc(/C=C/CN2CCc3cc(Br)c(O)cc3C(c3ccccc3)C2)cc1 (stereo not given) , value? 6.07

Quick one: CN(C)CCCCN1CCc2cc(Cl)c(O)cc2C(c2ccccc2)C1 (stereo not given) 5.46

Quick one: CN(C)c1ccc(/C=C/CN2CCc3cc(Cl)c(O)cc3C(c3ccccc3)C2)cc1 (stereo not given) 6.46

---

molecular target: D(1A) dopamine receptor (Rattus norvegicus, UniProt P18901); test: Affinity for dopamine receptor D1 binding measured by competition against [3H]-SCH- 23390 to rat striatal membrane; set-up: species or system Striatum
value-kind: Ki (µM)
Unit µM implied. Number only.

Can you look up the measured Ki of Oc1cc2c(cc1Br)CCN(C/C=C/c1ccccc1)CC2c1ccccc1 (configuration not stated) for me? 0.209

Kindly review the next compound as well.
Can you look up the measured Ki of CN(C)c1ccc(/C=C/CN2CCc3cc(Br)c(O)cc3C(c3ccccc3)C2)cc1 (configuration not stated) for me? 0.12
